Where these numbers come from: the supplement of paper PMC5998384

Measured thermal stability score, listed per entry.
System: HeLa Kyoto;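 also: synchronized HeLa Kyoto cells, proteins quantified by TMT10plex mass spectrometry, three biological replicates, mitosis taken 0.5 h after nocodazole release, G1/S directly after double thymidine block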
Assay: thermal stability score vs G1/S (z-score of summed log2 fold changes over temperatures); higher = more thermally stable than in G1/S
Conditions: cell cycle stage: early G1 (4.5 h after nocodazole release)
Provide a numeric answer; units are not to be included.

Previously resolved entries follow.
substance: MAEQLSPGKAVDQVCTFLFKKPGRKGAAGRRKRPACDPEPGESGSSSDEGCTVVRPEKKRVTHNPMIQKTRDSGKQKAAYGDLSSEEEEENEPESLGVVYKSTRSAKPVGPEDMGATAVYELDTEKERDAQAIFERSQKIQEELRGKEDDKIYRGINNYQKYMKPKDTSMGNASSGMVRKGPIRAPEHLRATVRWDYQPDICKDYKETGFCGFGDSCKFLHDRSDYKHGWQIERELDEGRYGVYEDENYEVGSDDEEIPFKCFICRQSFQNPVVTKCRHYFCESCALQHFRTTPRCYVCDQQTNGVFNPAKELIAKLEKHRATGEGGASDLPEDPDEDAIPIT [RNF113A]
readout_number: -3.12
//
substance: MAAPPEPGEPEERKSLKLLGFLDVENTPCARHSILYGSLGSVVAGFGHFLFTSRIRRSCDVGVGGFILVTLGCWFHCRYNYAKQRIQERIAREEIKKKILYEGTHLDPERKHNGSSSN [COX20]
readout_number: -0.338
//
substance: ARHGAP21
readout_number: 0.0615

What thermal stability score value was documented for this substance, MLSRAVCGTSRQLAPVLGYLGSRQKHSLPDLPYDYGALEPHINAQIMQLHHSKHHAAYVNNLNVTEEKYQEALAKGDVTAQIALQPALKFNGGGHINHSIFWTNLSPNGGGEPKGELLEAIKRDFGSFDKFKEKLTAASVGVQGSGWGWLGFNKERGHLQIAACPNQDPLQGTTGLIPLLGIDVWEHAYYLQYKNVRPDYLKAIWNVINWENVTERYMACKK [SOD2] ?
-0.479

What thermal stability score value was documented for this substance, MLFLALGSPWAVELPLCGRRTALCAAAALRGPRASVSRASSSSGPSGPVAGWSTGPSGAARLLRRPGRAQIPVYWEGYVRFLNTPSDKSEDGRLIYTGNMARAVFGVKCFSYSTSLIGLTFLPYIFTQNNAISESVPLPIQIIFYGIMGSFTVITPVLLHFITKGYVIRLYHEATTDTYKAITYNAMLAETSTVFHQNDVKIPDAKHVFTTFYAKTKSLLVNPVLFPNREDYIHLMGYDKEEFILYMEETSEEKRHKDDK [TMEM70] ?
0.217

What thermal stability score value was documented for this substance, MNSSTSTMSEEPDALSVVNQLRDLAADPLNRRAIVQDQGCLPGLILFMDHPNPPVVHSALLALRYLAECRANREKMKGELGMMLSLQNVIQKTTTPGETKLLASEIYDILQSSNMADGDSFNEMNSRRRKAQFFLGTTNKRAKTVVLHIDGLDDTSRRNLCEEALLKIKGVISFTFQMAVQRCVVRIRSDLKAEALASAIASTKVMKAQQVVKSESGEEMLVPFQDTPVEVEQNTELPDYLPEDESPTKEQDKAVSRVGSHPEGGASWLSTAANFLSRSFYW [ARMC1] ?
0.134

What thermal stability score value was documented for this substance, MELSAEYLREKLQRDLEAEHVEVEDTTLNRCSCSFRVLVVSAKFEGKPLLQRHRLVNACLAEELPHIHAFEQKTLTPDQWARERQK [BOLA2] ?
0.374
